Assay: Solubility measurement (DMSO solution precipitation method)
Format: physicochemical
Conditions: aqueous buffer, kinetic from dmso stock; McIlvaine buffer pH 6.8, 24 h; read-out: Solubility [μg/ml] pH 6.8
Method: The DMSO solution is diluted with an aqueous medium (McIlvaine buffer with pH=4.5 or 6.8) to a final concentration of 250 μM. After 24 h of shaking at ambient temperature a potentially formed precipitate is removed by filtration. The concentration of the test compound in the filtrate is determined by LC-UV methods by calibrating the signal to the signal of a reference solution with complete dissolution of the test compound in acetonitrile/water (1:1) with known concentration.
Observable: solubility at 24 h (µg/mL)

[
  {
    "Structure Smiles": "C[C@H](Oc1cc(Oc2cccnc2)nc(-c2onc3c2CCC[C@@]32CCCc3sc(N)c(C#N)c32)n1)[C@@H]1CCCN1C",
    "Scale Unit": "µg/mL",
    "Value Observed": 89
  },
  {
    "Structure Smiles": "C[C@H](Oc1cc(N[C@H]2CCOC2)nc(-c2onc3c2CCC[C@@]32CCCc3sc(N)c(C#N)c32)n1)[C@@H]1CCCN1C",
    "Scale Unit": "µg/mL",
    "Value Observed": 107
  },
  {
    "Structure Smiles": "C[C@H](Oc1cc(Oc2cnccn2)nc(-c2noc3c2CCC[C@@]32CCCc3sc(N)c(C#N)c32)n1)[C@@H]1CCCN1C",
    "Scale Unit": "µg/mL",
    "Value Observed": 90
  }
]

====

Test: Plasma protein binding assay (PPB), equilibrium dialysis
Assay type: in vitro ADME
Conditions: bovine, 10% FCS in PBS, read-out: PPB 10% FCS (% fu)
Observable: fraction unbound

These recorded examples may help you get a feel for the data.
[
  {
    "Compound": "C[C@H](Oc1cc(Oc2cncnc2)nc(-c2noc3c2CCC[C@@]32CCCc3sc(N)c(C#N)c32)n1)[C@@H]1CCCN1C [II-1]",
    "Value Observed": 0.19
  },
  {
    "Compound": "C[C@H](Oc1cc(OCC2(N(C)C)CC2)nc(-c2noc3c2CCC[C@@]32CCCc3sc(N)c(C#N)c32)n1)[C@@H]1CCCN1C [II-21]",
    "Value Observed": 0.72
  },
  {
    "Compound": "C[C@H](Oc1cc(OCCO)nc(-c2noc3c2CCC[C@@]32CCCc3sc(N)c(C#N)c32)n1)[C@@H]1CCCN1C [II-6]",
    "Value Observed": 0.72
  }
]

I = C[C@H](Oc1cc(Nc2ncco2)nc(-c2noc3c2CCC[C@@]32CCCc3sc(N)c(C#N)c32)n1)[C@@H]1CCCN1C [II-13]
II = C[C@H](Oc1cc(Sc2ncccn2)nc(-c2onc3c2CCC[C@@]32CCCc3sc(N)c(C#N)c32)n1)[C@@H]1CCCN1C [Example I-7]
Would you mind telling me which has the lower recorded fraction unbound between I and II ? When you have decided, please share the label of that item.
I

====

Test: Caco-2 assay
Format: in vitro ADME
Conditions: human; Caco-2 efflux ratio PappBA/PappAB; 10 μM test compound, pH 7.4; read-out: Caco ER
Observable: efflux ratio at 90 min, 10 μM

1 = C[C@H](Oc1cc(N(C)C)nc(-c2noc3c2CCC[C@@]32CCCc3sc(N)c(C#N)c32)n1)[C@@H]1CCCN1C [II-10]
2 = C[C@H](Oc1cc(OCCO)nc(-c2noc3c2CCC[C@@]32CCCc3sc(N)c(C#N)c32)n1)[C@@H]1CCCN1C [II-6]
3 = C[C@H](Oc1cc(Nc2ccncn2)nc(-c2noc3c2CCC[C@@]32CCCc3sc(N)c(C#N)c32)n1)[C@@H]1CCCN1C [II-15]
Order the records by efflux ratio at 90 min, 10 μM, with each subsequent value no larger than the one before. // rank by listing labels in the order requested
2, 3, 1
(2: 20.8, 3: 14.5, 1: 3)

I = C[C@H](Oc1cc(O[C@H]2CCOC2)nc(-c2noc3c2CCC[C@@]32CCCc3sc(N)c(C#N)c32)n1)[C@@H]1CCCN1C [II-4]
II = CO[C@@H]1C[C@@H]([C@H](C)Oc2cc(O[C@@H]3CNC3(C)C)nc(-c3noc4c3CCC[C@@]43CCCc4sc(N)c(C#N)c43)n2)N(C)C1 [II-30]
Higher efflux ratio at 90 min, 10 μM: I or II ? When you have decided, please share the label of that item.
II
